Tested on: HL-60(TB) leukemia
EXPERIMENT_NOTES: NCI-60 one-dose screen, 48 h
PROTOCOL_CONDITIONS: 10 µM unless noted
About 83,000 compounds went through this panel and 20% of them were active in at least one assay; those are over-represented in the sample as a whole. The source made the active and inactive calls. Rule for the calls: active = growth percent below 10; inactive = the rest.
Labels: active, inactive

[
  {
    "COMPOUND": "CC(=O)Nc1cccc(NC(C)=O)n1",
    "GROUP_LABEL": "inactive"
  },
  {
    "COMPOUND": "NC(=O)c1cccc(-c2ccccc2N2CCCCC2)c1",
    "GROUP_LABEL": "inactive"
  },
  {
    "COMPOUND": "COc1cc(NC(=O)c2sc3nc4c(cc3c2N)C(O)CCC4)cc(OC)c1 (stereo unspecified)",
    "GROUP_LABEL": "inactive"
  },
  {
    "COMPOUND": "Oc1ccccc1C=Nc1ccccc1N=Cc1ccccc1O.[Cu+2]",
    "GROUP_LABEL": "inactive"
  },
  {
    "COMPOUND": "COc1ccc(-c2cc(-c3nnc(SCC(=O)Nc4ccc(/C(C)=N\\O)cc4)o3)c3ccccc3n2)cc1",
    "GROUP_LABEL": "inactive"
  },
  {
    "COMPOUND": "O=C(Nc1ccc(F)cc1)ON=C1CCCCC1",
    "GROUP_LABEL": "inactive"
  },
  {
    "COMPOUND": "O=C(CCOCCNC(=O)COc1ccc2c(c1)OCC(c1ccc(F)cc1)C2=O)NCCCC(O)(P(=O)(O)O)P(=O)(O)O (stereo unspecified)",
    "GROUP_LABEL": "inactive"
  },
  {
    "COMPOUND": "COc1ccc2c(c1)c(-c1ccc(-c3cn(C)c4ccc(OC)cc34)o1)cn2C",
    "GROUP_LABEL": "active"
  },
  {
    "COMPOUND": "O=C1NC(=O)/C(=C\\c2ccccc2)C2=C1CCCC2",
    "GROUP_LABEL": "active"
  },
  {
    "COMPOUND": "COC1OCC(OS(=O)(=O)c2ccc(C)cc2)C(OC(=O)c2ccccc2)C1OC(=O)c1ccccc1 (stereo unspecified)",
    "GROUP_LABEL": "inactive"
  },
  {
    "COMPOUND": "CCOC(=O)c1cc2oc(/C=C/c3cc(=O)c4cc(Cl)ccc4o3)cc2[nH]1",
    "GROUP_LABEL": "inactive"
  },
  {
    "COMPOUND": "CCC(=O)c1ccc(Cl)s1",
    "GROUP_LABEL": "inactive"
  },
  {
    "COMPOUND": "FC(F)(F)c1cc(-c2nnc3n2N=C(Cl)CS3)cc(C(F)(F)F)c1",
    "GROUP_LABEL": "inactive"
  },
  {
    "COMPOUND": "CN1CCN(C(=O)/C=C/c2ccc([N+](=O)[O-])o2)CC1",
    "GROUP_LABEL": "inactive"
  },
  {
    "COMPOUND": "O=C(Nc1ccc(-n2cc(-c3ccncc3)c(-c3ccc(Cl)c(O)c3)n2)cc1)c1cc(Cl)cc(Cl)c1",
    "GROUP_LABEL": "active"
  },
  {
    "COMPOUND": "Fc1ccc2nc3c(cc2c1)CSc1nnc(-c2ccc[nH]c2=S)n1N3",
    "GROUP_LABEL": "inactive"
  },
  {
    "COMPOUND": "CC[C@@H](c1ccc2cc(OC)ccc2c1)C(C)(C)C(=O)F",
    "GROUP_LABEL": "inactive"
  },
  {
    "COMPOUND": "CC(C)Nc1cc(-c2c[nH]c(C(=O)N[C@H](CO)c3cccc(Cl)c3)c2)c(Cl)cn1",
    "GROUP_LABEL": "active"
  },
  {
    "COMPOUND": "C=CC(=O)Nc1ccc(Oc2nccc(Nc3nnc(-c4ccc(C)cc4)s3)n2)cc1",
    "GROUP_LABEL": "inactive"
  },
  {
    "COMPOUND": "C=C1C(=O)O[C@H]2[C@H]1CC/C(COC(=O)NCCc1c[nH]c3ccccc13)=C\\CC[C@@]1(C)O[C@@H]21",
    "GROUP_LABEL": "active"
  },
  {
    "COMPOUND": "CNC(=O)N/N=C/c1ccc([N+](=O)[O-])o1",
    "GROUP_LABEL": "inactive"
  }
]

----------
Test system: HL-60(TB) leukemia
EXPERIMENT_NOTES: NCI-60 one-dose screen, 48 h
PROTOCOL_CONDITIONS: 10 µM unless noted
The panel holds about 83,000 compounds, 20% with a hit somewhere; the sample as a whole holds those more often. Calls of active or inactive are those of the source. Rule for the calls: active = growth percent below 10; inactive = the rest.
Possible outcomes: 1 (yes) for active, 0 (no) for inactive

[
  {
    "MOL": "CCCCCc1c(C)[nH]c(/C=C2\\N=C(c3ccc[nH]3)C=C2Oc2ccccc2)c1C",
    "GROUP_LABEL": "1 (yes)"
  },
  {
    "MOL": "CN1CCc2nc3sc(C(N)=O)c(N)c3c(-c3cccs3)c2C1",
    "GROUP_LABEL": "1 (yes)"
  },
  {
    "MOL": "O=C(CN1CCOCC1)Nc1ccc2ncnc(Nc3ccc(OCc4cccc(F)c4)c(Cl)c3)c2c1",
    "GROUP_LABEL": "0 (no)"
  },
  {
    "MOL": "Nc1ncc(-c2ccc3ncnc(N4CCc5cc(F)c(Cl)cc54)c3c2)cc1C=O",
    "GROUP_LABEL": "1 (yes)"
  },
  {
    "MOL": "NC(=O)c1c(Nc2ccccc2)nn2cc(-c3nc4ccccc4s3)c(N)nc12",
    "GROUP_LABEL": "0 (no)"
  },
  {
    "MOL": "CNC(=O)c1c(NC(=O)c2ccc(C(C)C)cc2)sc2c1CCC(=O)C2",
    "GROUP_LABEL": "1 (yes)"
  },
  {
    "MOL": "CCOC(=O)c1c(C)nc2c(c1N)/C(=C/c1ccc(OC)cc1)C(=O)N2Cc1ccc(F)cc1",
    "GROUP_LABEL": "1 (yes)"
  },
  {
    "MOL": "O=S(=O)(NCCCNc1cc(-c2cn(-c3ccccc3)nc2-c2cccc(O)c2)ccn1)c1ccc(C(F)(F)F)cc1",
    "GROUP_LABEL": "0 (no)"
  },
  {
    "MOL": "COc1cc(-c2nc3c(ncc4ccc(=O)n(-c5ccccc5)c43)s2)cc(OC)c1OC",
    "GROUP_LABEL": "0 (no)"
  }
]
